Hi there, I'd appreciate the recorded Ki for every entry that follows.
# output: bare number, implied unit nM

Q: Any idea what Ki came out for `Cc1ccc(N2CCNCC2)c2occc12` on 5-hydroxytryptamine receptor 1A (Rattus norvegicus, UniProt P19327)?
Ans: 220

Q: Any idea what Ki came out for `C1=COc2c(cccc2N2CCNCC2)O1` on 5-hydroxytryptamine receptor 1A (Rattus norvegicus, UniProt P19327)?
Ans: 12

Q: Notebook entry, 5-hydroxytryptamine receptor 1A (Rattus norvegicus, UniProt P19327) assay: Ki of `N#Cc1ccc2ccoc2c1N1CCNCC1` = ?
Ans: 220

Q: Please state recorded Ki (tested on 5-hydroxytryptamine receptor 1A (Rattus norvegicus, UniProt P19327)) of `Brc1ccc(N2CCNCC2)c2occc12`
Ans: 300

Q: Query for 5-hydroxytryptamine receptor 1A (Rattus norvegicus, UniProt P19327): what Ki does the record show for `Brc1coc2c(N3CCNCC3)cccc12` ?
Ans: 130

###

Would you kindly list pKi for each of these molecules?
biological target: UniProtKB P19327; assay: Displacement of [3H]2-(di-N-propylamino)-8-hydroxytetralin from central 5-hydroxytryptamine 1A receptor recognition sites in rat frontal cortex homogenates.; type: tissue-based
The scale used: pKi is minus the common logarithm of the concentration in molar units.

Q: Return reported pKi; argument: `COc1cc(N2CCNCC2)c2occc2c1`
Ans: 7.55

Q: Suppose we examine the molecule `COc1cccc(N2CCNCC2)c1OC` ; what pKi value has been reported?
Ans: 6.00

Q: Which pKi reading was recorded for the molecule `Cc1coc2c(N3CCNCC3)cccc12` ?
Ans: 7.14

Q: Query: pKi; subject: `CC1=COc2c(cccc2N2CCNCC2)O1`
Ans: 8.28

Q: Please report the recorded pKi for `O=[N+]([O-])c1ccc2ccoc2c1N1CCNCC1` .
Ans: 6.85

Q: Which pKi value is on record for `COc1cccc(N2CCNCC2)c1` ?
Ans: 6.49

###

molecular target: 5-hydroxytryptamine receptor 1A (Rattus norvegicus)
pKi: −log10 of the molar value.
pKi vs 7: at or above is Y, below is N.

Q: Dear colleague, could you confirm whether `Clc1ccc2c(c1N1CCNCC1)OCCO2` has pKi at or above 7?
Ans: N

Q: Form field: pKi at least 7? Entry: `c1cc(N2CCNCC2)c2[nH]ccc2c1`
Ans: N

Q: Is pKi at least 7? Consider `c1ccc(N2CCNCC2)cc1`
Ans: N

Q: Assess whether reported pKi for `c1ccc2c(N3CCNCC3)cccc2c1` sits at 7 or higher.
Ans: Y

Q: Is pKi for `Fc1ccc(N2CCNCC2)c2occc12` at or above 7?
Ans: Y

Q: Decide: is the reported value of pKi for `Fc1ccc2ccoc2c1N1CCNCC1` equal to or greater than 7?
Ans: Y

Q: Textbook exercise: given the entry `Cc1cc2cccc(N3CCNCC3)c2o1` , state whether its pKi is greater than or equal to 7.
Ans: Y

Q: Could you verify whether the entry `Brc1cc(N2CCNCC2)c2occc2c1` shows pKi of no less than 7?
Ans: Y

Q: Is reported pKi greater than or equal to 7 here: `COc1ccc(N2CCNCC2)c2occc12`
Ans: N

Q: Check if pKi >= 7 (inclusive). Item: `c1cc(N2CCNCC2)c2sccc2c1`
Ans: Y

Q: Is it the case that `COc1ccc(N2CCNCC2)cc1` has pKi reaching or exceeding 7?
Ans: N

###

Please go through the items and note down their Ki.
Target: 5-hydroxytryptamine receptor 1A (Rattus norvegicus)
Sequence (P19327 whole entry): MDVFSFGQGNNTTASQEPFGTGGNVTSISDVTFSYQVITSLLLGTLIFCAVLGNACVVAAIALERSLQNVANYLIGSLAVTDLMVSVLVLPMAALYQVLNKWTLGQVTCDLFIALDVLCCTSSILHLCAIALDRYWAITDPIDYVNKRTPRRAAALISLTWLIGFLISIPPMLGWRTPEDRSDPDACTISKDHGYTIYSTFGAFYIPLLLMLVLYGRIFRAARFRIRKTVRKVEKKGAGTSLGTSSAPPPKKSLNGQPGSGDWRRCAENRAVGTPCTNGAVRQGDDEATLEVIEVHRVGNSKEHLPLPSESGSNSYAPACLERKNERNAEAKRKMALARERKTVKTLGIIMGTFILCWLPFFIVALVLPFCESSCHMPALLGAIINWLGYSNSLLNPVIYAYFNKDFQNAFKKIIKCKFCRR
# value in nM; strip the unit string

Q: Reported Ki for `c1cc2c(c(N3CCNCC3)c1)CCCC2` : what is it?
Ans: 84

Q: Report Ki for `Fc1cc(N2CCNCC2)c2occc2c1` please.
Ans: 105

Q: Would you kindly share the measured Ki for `Cc1cc(N2CCNCC2)c2occc2c1` ?
Ans: 120
